study-target: Calmodulin-1 (Homo sapiens)
test-protocol: CALM1 binders on microarrays, EGTA buffer, profiling panel, biochemical, small-molecule microarray, Cy5-labelled CALM1 (AID 1111);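 also: labelled calmodulin applied in Tris saline Tween buffer holding calcium plus EGTA and DTT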
condition-parameters: Cy5-CALM1 binding fluorescence, higher = more signal
Please enter TRUE where composite z-score is greater than or equal to 2, and FALSE where it is lower.

Sample answers from the record:
compound: COc1cc(OC)c(C(O)C2C=CC3C(=O)NC(=O)C3N2Nc2ccc(Cl)cc2Cl)cc1Br (stereo not drawn)
assigned-class: TRUE
--
compound: COC(=O)C=C(CC(O)c1cccc(Cl)c1)OC (stereo not drawn)
assigned-class: FALSE
--
compound: COc1cc2c(cc1OC)CN(C(=O)[C@H]1[C@@H]3C(=O)O[C@@H](c4ccccc4)[C@@H](c4ccccc4)N3[C@@H](c3ccc(O)cc3)[C@]13C(=O)Nc1ccc(C#CC4=CCCCC4)cc13)CC2
assigned-class: FALSE

Query: Check this compound for composite z-score at or above 2: C=C(CCCC)C(=O)CC[C@H](OC(=O)c1cccnc1)c1ccccc1OCCO
Result: FALSE

Query: Check this compound for composite z-score at or above 2: O=C(NCc1ccccc1)[C@@]1(Cc2ccccc2)N=C(c2ccc(OCCCO)cc2)O[C@H]1c1ccccc1
Result: TRUE

Query: Check this compound for composite z-score at or above 2: COC(=O)[C@@]1(Cc2ccc(F)cc2)[C@H]2c3cc(C(=O)N(C)C)n(CC4CC4)c3C[C@H]2CN1C(=O)c1ccccc1
Result: TRUE

Query: Check this compound for composite z-score at or above 2: O=C1C2C=CC(C(O)C(c3ccccc3)c3ccccc3)N(n3cnnc3)C2C(=O)N1Cc1ccccc1 (stereo not drawn)
Result: FALSE

Query: Check this compound for composite z-score at or above 2: COc1cc(CO)cc(I)c1O[C@H]1C=C(C(=O)NCCO)C[C@@H](N(CCN2CCOCC2)C(=O)C2CCOC2)[C@@H]1O (stereo partly drawn)
Result: FALSE

* * *

study-target: Follistatin-related protein 3 (Homo sapiens)
test-protocol: FSTL3 binders on small-molecule microarrays, primary screen, biochemical, small-molecule microarray, 635 nm fluorescence (AID 1105);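 also: score merges emission near 667 nm and signal to noise per printed spot across three slides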
condition-parameters: FSTL3 binding, higher = more signal
Please enter condition met where composite z-score is greater than or equal to 0.02, and condition not met where it is lower.

compound: O=C(c1ccccc1)N1Cc2ccccc2[C@@H]2OC(c3ccc(OCCCO)cc3)=N[C@]2(Cc2ccccc2)C1=O
assigned-class: condition met

compound: COc1ccc(NN2C(C(O)c3ccc([N+](=O)[O-])cc3)C=CC3C(=O)N(C4CCCCC4)C(=O)C32)cc1 (stereo not given)
assigned-class: condition met

compound: CC(C)(C)C(=O)N[C@@H](c1ccc(Cl)cc1)[C@]1(C)C[C@H]1C1CCCCC1
assigned-class: condition met

For the next question, use this compound.
Query: Check this compound for composite z-score at or above 0.02: C=C/C=C/[C@H]1C(=C)CN([C@@H](Cc2ccccc2)C(=O)OC)[C@@H]1[C@H](O)Cc1ccccc1
Result: condition not met

* * *

test-protocol: MM1S cell viability effects, profiling panel, calcein-AM fluorescence, 48 h, basal (AID 1165);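 also: viability of MM1S multiple myeloma cells under basal unstimulated conditions; test concentration not given here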
condition-parameters: higher = more signal
Attribute: z-score
I only need the number, thanks.

compound: C=CC[C@@]1(C(=O)NCc2ccccc2)N=C(c2ccc(OCCCO)cc2)O[C@@H]1c1ccccc1N=[N+]=[N-]
z-score: -1.48

The recorded z-score for C=CCNC(=O)[C@H]1[C@@H]2C(=O)O[C@@H](c3ccccc3)[C@@H](c3ccccc3)N2[C@@H](c2ccc(OCCO)cc2)[C@]12C(=O)Nc1ccc(C#CC3=CCCCC3)cc12 is -1.99

The recorded z-score for CC(C)(C)OC(=O)CC[C@@]1(C(N)=O)N=C(c2ccc(OCCCO)cc2)O[C@@H]1c1ccccc1 is 0.0092

The recorded z-score for CCOC(=O)C[C@H]1[C@H](OC(=O)c2cc3ccccc3oc2=O)[C@@H](NC(=O)Cc2ccc(OC)cc2)c2cc(OCCCO)ccc2N1C(=O)c1ccccc1 is -0.0168

The recorded z-score for C#CCN(CC=C(C)C)[C@H](CO)c1ccccc1 is 0.0539

The recorded z-score for COc1ccc(C(O)C2C=CC3C(=O)NC(=O)C3N2Nc2ccccn2)cc1 (stereo not given) is -0.632

The recorded z-score for COCCOC(=O)N1C(=O)[C@@]2(c3cc(C#CC4=CCCCC4)ccc31)[C@H](C(=O)Nc1nc3ccccc3s1)[C@H]1C(=O)O[C@H](c3ccccc3)[C@H](c3ccccc3)N1[C@@H]2c1ccccc1OCCO is -1.59
